# [Aurora A IC50 (nM)]/[PLK4 IC50 (nM)] values compiled below
- MEASUREMENT_TARGET: human recombinant Aurora A (Homo sapiens (Human))
- Sequence (O14965 whole entry): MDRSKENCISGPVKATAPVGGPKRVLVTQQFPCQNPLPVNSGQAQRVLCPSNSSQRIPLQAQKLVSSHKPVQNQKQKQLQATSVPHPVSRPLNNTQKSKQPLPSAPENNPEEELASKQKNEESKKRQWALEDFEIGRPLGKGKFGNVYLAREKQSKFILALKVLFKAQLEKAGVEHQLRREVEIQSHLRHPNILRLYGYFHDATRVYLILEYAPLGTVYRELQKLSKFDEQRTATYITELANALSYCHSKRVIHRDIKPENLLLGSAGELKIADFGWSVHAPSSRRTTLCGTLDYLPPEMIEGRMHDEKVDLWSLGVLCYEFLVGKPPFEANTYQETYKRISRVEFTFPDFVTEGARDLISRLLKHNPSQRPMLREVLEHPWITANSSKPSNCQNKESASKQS
- PROTOCOL_SUMMARY: Aurora A Kinase Biochemical Assay (ADP-Glo)
- CONDITION_INFO: ratio of Aurora A IC50 to PLK4 IC50 (selectivity)
MEASURE: [Aurora A IC50 (nM)]/[PLK4 IC50 (nM)]

INSERT INTO results (compound, measurement_target, measure, quantitative_readout) VALUES
  ('COc1ccc2c(c1)[C@]1(C[C@H]1c1ccc3c(Nc4cc(C(C)O)cnc4OC)n[nH]c3c1)C(=O)N2 (mixture of isomers) [Example 271]', 'human recombinant Aurora A (Homo sapiens (Human))', '[Aurora A IC50 (nM)]/[PLK4 IC50 (nM)]', 825.7199),
  ('COc1ccc2c(c1)[C@]1(C[C@H]1c1ccc3c(Nc4nc(N5CCC(F)(F)C5)ncc4OC)n[nH]c3c1)C(=O)N2 [Example 170]', 'human recombinant Aurora A (Homo sapiens (Human))', '[Aurora A IC50 (nM)]/[PLK4 IC50 (nM)]', 694.1090),
  ('COc1cnc(C)nc1Nc1n[nH]c2cc([C@@H]3C[C@@]34C(=O)N(C)c3ccccc34)ccc12 [Example 122]', 'human recombinant Aurora A (Homo sapiens (Human))', '[Aurora A IC50 (nM)]/[PLK4 IC50 (nM)]', 11.1709),
  ('COc1ccc2c(c1)[C@]1(C[C@H]1c1ccc3c(Nc4cncc(C5COC5)n4)n[nH]c3c1)C(=O)N2 [Example 115]', 'human recombinant Aurora A (Homo sapiens (Human))', '[Aurora A IC50 (nM)]/[PLK4 IC50 (nM)]', 132.6035),
  ('COc1ccc2c(c1)[C@]1(C[C@H]1c1ccc3c(Nc4cc(S(=O)(=O)N(C)C)ccc4OC)n[nH]c3c1)C(=O)N2 [Example 179]', 'human recombinant Aurora A (Homo sapiens (Human))', '[Aurora A IC50 (nM)]/[PLK4 IC50 (nM)]', 13119.9160),
  ('COc1ccc2c(c1)[C@]1(C[C@H]1c1ccc3c(Nc4cc(C)c(C(=O)N(C)C)nc4OC)n[nH]c3c1)C(=O)N2 [Example 238]', 'human recombinant Aurora A (Homo sapiens (Human))', '[Aurora A IC50 (nM)]/[PLK4 IC50 (nM)]', 536.1),
  ('COc1ccc2c(c1)[C@]1(C[C@H]1c1ccc3c(Nc4ccc(C(=O)N5CCC(F)(F)CC5)nc4OC)n[nH]c3c1)C(=O)N2 [Example 185]', 'human recombinant Aurora A (Homo sapiens (Human))', '[Aurora A IC50 (nM)]/[PLK4 IC50 (nM)]', 3240.7975),
  ('COc1ccc2c(c1)[C@]1(C[C@H]1c1ccc3c(Nc4cc(F)c(C(=O)N5CCOCC5)cc4OC)n[nH]c3c1)C(=O)N2 [Example 207]', 'human recombinant Aurora A (Homo sapiens (Human))', '[Aurora A IC50 (nM)]/[PLK4 IC50 (nM)]', 497.3739),
  ('COc1ccc2c(c1)[C@]1(C[C@H]1c1ccc3c(Nc4ncnc(N5CCS(=O)(=O)CC5)c4Cl)n[nH]c3c1)C(=O)N2 [Example 53]', 'human recombinant Aurora A (Homo sapiens (Human))', '[Aurora A IC50 (nM)]/[PLK4 IC50 (nM)]', 4028.777),
  ('COc1ccc2c(c1)[C@]1(C[C@H]1c1ccc3c(Nc4ccc(C#N)nc4OC)n[nH]c3c1)C(=O)N2 [Example 260]', 'human recombinant Aurora A (Homo sapiens (Human))', '[Aurora A IC50 (nM)]/[PLK4 IC50 (nM)]', 1330.5457),
  ('COc1ccc2c(c1)[C@]1(C[C@H]1c1ccc3c(Nc4cccc5c4OCC5=O)n[nH]c3c1)C(=O)N2 [Example 31]', 'human recombinant Aurora A (Homo sapiens (Human))', '[Aurora A IC50 (nM)]/[PLK4 IC50 (nM)]', 207.053),
  ('COc1ccc2c(c1)[C@]1(C[C@H]1c1ccc3c(Nc4nc(C5CC5)nc(N5CC(O)C5)c4Cl)n[nH]c3c1)C(=O)N2 [Example 76]', 'human recombinant Aurora A (Homo sapiens (Human))', '[Aurora A IC50 (nM)]/[PLK4 IC50 (nM)]', 3304.147),
  ('COc1ccc2c(c1)[C@]1(C[C@H]1c1ccc3c(Nc4nc(C)nc(N5CC(O)C5)c4OC)n[nH]c3c1)C(=O)N2 [Example 73]', 'human recombinant Aurora A (Homo sapiens (Human))', '[Aurora A IC50 (nM)]/[PLK4 IC50 (nM)]', 3290.277),
  ('COc1ccc2c(c1)[C@]1(C[C@H]1c1ccc3c(Nc4nc(Cl)nc(N5CCOCC5)c4OC)n[nH]c3c1)C(=O)N2 [Example 48]', 'human recombinant Aurora A (Homo sapiens (Human))', '[Aurora A IC50 (nM)]/[PLK4 IC50 (nM)]', 1948.123),
  ('COc1ccc2c(c1)[C@]1(C[C@H]1c1ccc3c(Nc4ccc(C(=O)N5C6CCC5COC6)nc4OC)n[nH]c3c1)C(=O)N2 [Example 232]', 'human recombinant Aurora A (Homo sapiens (Human))', '[Aurora A IC50 (nM)]/[PLK4 IC50 (nM)]', 651.7909),
  ('COc1ccc2c(c1)[C@]1(C[C@H]1c1ccc3c(Nc4ncnc(N5CC(O)C5)c4OC)n[nH]c3c1)C(=O)N2 [Example 43]', 'human recombinant Aurora A (Homo sapiens (Human))', '[Aurora A IC50 (nM)]/[PLK4 IC50 (nM)]', 1347.136),
  ('COc1ccc2c(c1)[C@]1(C[C@H]1c1ccc3c(Nc4cc(N5CC(O)C5)ncn4)n[nH]c3c1)C(=O)N2 [Example 36]', 'human recombinant Aurora A (Homo sapiens (Human))', '[Aurora A IC50 (nM)]/[PLK4 IC50 (nM)]', 218.2083);
